Measured pIC50 by item
measured_target: CyclinA2/CDK2 (Homo sapiens)
Construct: purchased CRELUX Protein Services
measurement_notes: Fluorescence Polarization (FP) competitive binding assay, Cyclin A2/Cdk2;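 note: plates equilibrated two hours at room temperature before polarization reading, IC50 fitted from eight-concentration compound titration curves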
details: 8 nM Cyclin A2/Cdk2, 2 nM FAM probe; average of 2-3 independent experiments; read-out: Cyclin A FP IC50
*1 amine or outer side, *2 acyl side, *3 side chain or, on linkers, in order; H or OH if unused. Where a SMILES comes first, the peptide text is derived from it. Bridges are numbered along the chain shown (N, C = ends). [ ]: non-standard residue; d: D form. The star is where a group is joined. NMehhhLys(Me) = CN([C@@H](CCCCCCCN(C)[*:3])C(=O)[*:2])[*:1]; NMe3Pal(2-OcPr,5-F) = CN[C@@H](Cc1cc(F)cnc1OC1CC1)C(=O)O; X176 = CN([C@@H](Cc1cc(F)ccc1-c1cccnc1)C(=O)[*:2])[*:1]; NMe(hhhLys) = CN([C@@H](CCCCCCCN[*:3])C(=O)[*:2])[*:1]; cBuCO(3,3-F2-1-CF3) = O=C(C1(C(F)(F)F)CC(F)(F)C1)*; Pro(trans-4-F) = O=C(O)[C@@H]1C[C@@H](F)CN1; Gly(cPr) = N[C@H](C(=O)O)C1CC1
Scale: pIC50 equals -log10([C]), with [C] in mol/L.

Use the examples below as a reference point.
{"columns": ["compound", "pIC50"],
 "data": [
  ["CC(C)C[C@@H]1NC(=O)[C@@H](N(C)C(=O)[C@@H](NC(=O)[C@@H]2C[C@@H](F)CN2C(=O)C2(C(F)(F)F)CC(F)(F)C2)C2CC2)CCCCCCCN(C)C(=O)[C@H](Cc2cc(F)cnc2OC2CC2)N(C)C1=O [Example 128] ({cBuCO(3,3-F2-1-CF3)}-[Pro(trans-4-F)][Gly(cPr)][NMehhhLys(Me)]L[NMe3Pal(2-OcPr,5-F)]; lactam 3-C)", 7.10],
  ["CC(C)C[C@@H]1NC(=O)[C@@H](N(C)C(=O)[C@@H](NC(=O)[C@@H]2C[C@@H](F)CN2C(=O)C2(C(F)(F)F)CC(F)(F)C2)C2CC2)C/C=C\\CCCCN(C)C(=O)[C@H](Cc2cc(Cl)ccc2-c2cnn(S(C)(=O)=O)c2)N(C)C1=O [Example 298]", 7.30],
  ["CC(C)C[C@@H]1NC(=O)[C@@H](N(C)C(=O)[C@@H](NC(=O)[C@@H]2C[C@@H](F)CN2C(=O)C2(C(F)(F)F)CC(F)(F)C2)C2CC2)CC=CCCCCNC(=O)[C@H](Cc2cc(Cl)ccc2C2=CCN(C(=O)C(C)(C)C)CC2)N(C)C1=O [Example 91]", 7.00]
]}

From here, focus on the item given below.
## Input Can you share its pIC50? I mean this compound: CC(C)C[C@@H]1NC(=O)[C@@H](N(C)C(=O)[C@@H](NC(=O)[C@@H]2C[C@@H](F)CN2C(=O)C2(C(F)(F)F)CC(F)(F)C2)C2CC2)CCCCCCCNC(=O)[C@H](Cc2cc(F)ccc2-c2cccnc2)N(C)C1=O [Example 280] ({cBuCO(3,3-F2-1-CF3)}-[Pro(trans-4-F)][Gly(cPr)][NMe(hhhLys)]L[X176]; lactam 3-C)
## Output 7.40

* * *

measured_target: CyclinE1/CDK2 (Homo sapiens)
Construct: purchased Eurofins, discovery 14-475
measurement_notes: Fluorescence Polarization (FP) competitive binding assay, Cyclin E1/Cdk2
*1 amine or outer side, *2 acyl side, *3 side chain or, on linkers, in order; H or OH if unused. Where a SMILES comes first, the peptide text is derived from it. Bridges are numbered along the chain shown (N, C = ends). [ ]: non-standard residue; d: D form. The star is where a group is joined. X99 = CC(=O)N1CCC(Oc2ccc(Cl)cc2C[C@@H](C(=O)[*:2])N(C)[*:1])CC1; NMehhhLys(Me) = CN([C@@H](CCCCCCCN(C)[*:3])C(=O)[*:2])[*:1]; X174 = CN([C@@H](Cc1cc(Cl)cnc1-c1cnn(C)c1)C(=O)[*:2])[*:1]; X154 = Cc1oncc1-c1ccc(Cl)cc1C[C@@H](C(=O)[*:2])N(C)[*:1]; cBuCO(3,3-F2-1-CF3) = O=C(C1(C(F)(F)F)CC(F)(F)C1)*; Pro(trans-4-F) = O=C(O)[C@@H]1C[C@@H](F)CN1; Gly(cPr) = N[C@H](C(=O)O)C1CC1
Listed below: IC50 values for each entry.
The answer is to be given in nM; state only the numeric part.

// worked examples, IC50 included
{"columns": ["molecule", "readout_type", "val"],
 "data": [
  ["CC(C)C[C@@H]1NC(=O)[C@@H](N(C)C(=O)[C@@H](NC(=O)[C@@H]2C[C@@H](F)CN2C(=O)C2(C(F)(F)F)CC(F)(F)C2)C2CC2)CCCCCCCN(C)C(=O)[C@H](Cc2cc(Cl)cnc2-c2cnn(C)c2)N(C)C1=O [Example 246] ({cBuCO(3,3-F2-1-CF3)}-[Pro(trans-4-F)][Gly(cPr)][NMehhhLys(Me)]L[X174]; lactam 3-C)", "IC50", 640],
  ["CC(=O)N1CCC(Oc2ccc(Cl)cc2C[C@H]2C(=O)N(C)CCCCCCC[C@H](N(C)C(=O)[C@@H](NC(=O)[C@@H]3C[C@@H](F)CN3C(=O)C3(C(F)(F)F)CC(F)(F)C3)C3CC3)C(=O)N[C@@H](CC(C)C)C(=O)N2C)CC1 [Example 243] ({cBuCO(3,3-F2-1-CF3)}-[Pro(trans-4-F)][Gly(cPr)][NMehhhLys(Me)]L[X99]; lactam 3-C)", "IC50", 690]
]}

Now for the molecule whose IC50 we want.
## Input Endpoint output: IC50 of Cc1oncc1-c1ccc(Cl)cc1C[C@H]1C(=O)N(C)CCCCCCC[C@H](N(C)C(=O)[C@@H](NC(=O)[C@@H]2C[C@@H](F)CN2C(=O)C2(C(F)(F)F)CC(F)(F)C2)C2CC2)C(=O)N[C@@H](CC(C)C)C(=O)N1C [Example 212] ({cBuCO(3,3-F2-1-CF3)}-[Pro(trans-4-F)][Gly(cPr)][NMehhhLys(Me)]L[X154]; lactam 3-C) . Value?
## Output 4160

* * *

measured_target: CyclinE1/CDK2 (Homo sapiens)
Construct: purchased Eurofins, discovery 14-475
measurement_notes: Fluorescence Polarization (FP) competitive binding assay, Cyclin E1/Cdk2;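 note: readings taken after two-hour equilibration at room temperature in HEPES buffer with NaCl, DTT, NP-40 and BSA, IC50 fitted from eight-concentration serial dilution series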
details: 10 nM Cyclin E1/Cdk2, 2 nM FAM probe; average of 2-3 independent experiments; read-out: Cyclin E FP IC50
*1 amine or outer side, *2 acyl side, *3 side chain or, on linkers, in order; H or OH if unused. Where a SMILES comes first, the peptide text is derived from it. Bridges are numbered along the chain shown (N, C = ends). [ ]: non-standard residue; d: D form. The star is where a group is joined. X68 = CN([C@@H](Cc1cc(Cl)ccc1-c1cnn(C2CC2)c1)C(=O)[*:2])[*:1]; NMehhhLys(Me) = CN([C@@H](CCCCCCCN(C)[*:3])C(=O)[*:2])[*:1]; NMe(hhhLys) = CN([C@@H](CCCCCCCN[*:3])C(=O)[*:2])[*:1]; Cyclobutanecarbonyl(1-CF3) = O=C(C1(C(F)(F)F)CCC1)*; cBuCO(3,3-F2-1-CF3) = O=C(C1(C(F)(F)F)CC(F)(F)C1)*; NMePhe(2,5-Cl2) = CN[C@@H](Cc1cc(Cl)ccc1Cl)C(=O)O; Pro(trans-4-F) = O=C(O)[C@@H]1C[C@@H](F)CN1; Gly(cPr) = N[C@H](C(=O)O)C1CC1
Collected IC50 values appear next to each entry.
Enter your answer as a number in nM; do not include the unit.

// solved cases for IC50 follow
{"columns": ["molecule", "unit_abbrev", "IC50"],
 "data": [
  ["CC(C)C[C@@H]1NC(=O)[C@@H](NC(=O)[C@@H](NC(=O)[C@@H]2C[C@@H](F)CN2C(=O)C2(C(F)(F)F)CC(F)(F)C2)C2CC2)CC=CCCCCN(C)C(=O)[C@H](Cc2cc(Cl)ccc2Cl)N(C)C1=O [Example 12]", "nM", 100],
  ["CC(C)C[C@@H]1NC(=O)[C@@H](N(C)C(=O)[C@@H](NC(=O)[C@@H]2C[C@@H](F)CN2C(=O)C2(C(F)(F)F)CC(F)(F)C2)C2CC2)CCCCCCCN(C)C(=O)[C@H](Cc2cc(Cl)ccc2Cl)N(C)C1=O [Example 25] ({cBuCO(3,3-F2-1-CF3)}-[Pro(trans-4-F)][Gly(cPr)][NMehhhLys(Me)]L[NMePhe(2,5-Cl2)]; lactam 3-C)", "nM", 230]
]}

Lab note: next molecule to report on.
## Input Which value of IC50 has been reported for CC(C)C[C@@H]1NC(=O)[C@@H](N(C)C(=O)[C@@H](NC(=O)[C@@H]2C[C@@H](F)CN2C(=O)C2(C(F)(F)F)CCC2)C2CC2)CCCCCCCNC(=O)[C@H](Cc2cc(Cl)ccc2-c2cnn(C3CC3)c2)N(C)C1=O [Example 188] ({Cyclobutanecarbonyl(1-CF3)}-[Pro(trans-4-F)][Gly(cPr)][NMe(hhhLys)]L[X68]; lactam 3-C) in the records?
## Output 230
